These measurements were taken from PubChem BioAssay (NCATS).

test.name: qHTS of pediatric cancer cell lines to identify multiple opportunities for drug repurposing: Primary screen for TC32 cells (AID 1347089); further: nearly all actives have a fitted effect of over 60% in size
protocol.conditions: TC32 Ewing sarcoma viability, CellTiter-Glo luminescence, 48 h; series mostly up to 45.8 µM
Inconclusive results are not listed. The source made the active and inactive calls. The call rests on the fitted dose curve; in most records, active means well fitted cell-killing curve with a large enough effect; inconclusive means small, poorly fitted or top-dose-only effect; inactive means flat fitted curve, though single readings scatter. Where a SMILES comes first, the peptide text is derived from it. [ ]: non-standard residue; d: D form. pGlu = O=C1CC[C@@H](C(=O)O)N1
Possible outcomes: yes (active), no (inactive)

- compound: "CCNC(=O)[C@@H]1CCCN1C(=O)[C@H](CCCN=C(N)N)NC(=O)[C@H](CC(C)C)NC(=O)CNC(=O)[C@H](Cc1ccc(O)cc1)NC(=O)[C@H](CO)NC(=O)[C@H](Cc1c[nH]c2ccccc12)NC(=O)[C@H](Cc1cnc[nH]1)NC(=O)[C@@H]1CCC(=O)N1 ([pGlu]HWSYGLRP-NHEt)"
  assigned.label: "no"
- compound: "C[N+](C)(CCOc1ccccc1)Cc1cccs1"
  assigned.label: "no"
- compound: "Cc1cc(OCCOCC[N+](C)(C)Cc2ccccc2)ccc1C(C)(C)CC(C)(C)C"
  assigned.label: "yes"
- compound: "COc1ccc2c(c1)CCCC2=O"
  assigned.label: "no"
- compound: "COc1ccc(/C(C)=C/C(=O)O)c(OC)c1"
  assigned.label: "no"
- compound: "C=CCNc1nc(NCC=C)nc(N2CCN(C(c3ccc(F)cc3)c3ccc(F)cc3)CC2)n1"
  assigned.label: "no"
- compound: "CCC(=O)Oc1ccc2c(c1)CC[C@@H]1[C@@H]2CC[C@@]2(C)[C@H]1C[C@@H](OC(=O)CC)[C@@H]2OC(=O)CC"
  assigned.label: "no"
- compound: "O=C(O)[C@@H](O)[C@H](O)[C@H](O)[C@@H](O)C(=O)O"
  assigned.label: "no"
- compound: "CO/N=C(\\C(=O)O)c1csc(NC(=O)CCl)n1"
  assigned.label: "no"
- compound: "Cc1oc(=O)oc1COC(=O)[C@@H]1N2C(=O)[C@@H](NC(=O)[C@H](N)c3ccccc3)[C@H]2SC1(C)C"
  assigned.label: "no"
- compound: "O=C(Oc1ccccc1)c1ccccc1O"
  assigned.label: "no"
- compound: "CCCc1ncc(C(=O)O)s1"
  assigned.label: "no"
- compound: "COC(=O)C1=C(C)NC(C)=C(C(=O)OCCc2ccc(N3CCN(C(c4ccccc4)c4ccccc4)CC3)cc2)C1c1cccc([N+](=O)[O-])c1 (stereo unspecified)"
  assigned.label: "no"
- compound: "COC(=O)c1cc(Cl)c(NC(C)=O)cc1OC"
  assigned.label: "no"
- compound: "Nc1ncnc2c1ncn2Cc1c(F)cccc1Cl"
  assigned.label: "no"
- compound: "C=C(C)C(=O)OCC(O)CO (stereo unspecified)"
  assigned.label: "no"
- compound: "COc1ccc2cc(C=O)ccc2c1"
  assigned.label: "no"
- compound: "CCCCC(CC)COC(=O)c1ccccc1C(=O)O (stereo unspecified)"
  assigned.label: "no"
- compound: "Cc1ncc([N+](=O)[O-])n1C"
  assigned.label: "no"
- compound: "CC(=O)CC/C=C(\\C)CC/C=C(\\C)CC/C=C(\\C)CCC=C(C)C"
  assigned.label: "no"
- compound: "Cn1cc(S(C)=O)c(=O)c2ccc(F)cc21 (stereo unspecified)"
  assigned.label: "no"

---

tested.target: Cytochrome P450 2C9 (Homo sapiens) (UniProt P11712)
Sequence (P11712 whole entry, looked up): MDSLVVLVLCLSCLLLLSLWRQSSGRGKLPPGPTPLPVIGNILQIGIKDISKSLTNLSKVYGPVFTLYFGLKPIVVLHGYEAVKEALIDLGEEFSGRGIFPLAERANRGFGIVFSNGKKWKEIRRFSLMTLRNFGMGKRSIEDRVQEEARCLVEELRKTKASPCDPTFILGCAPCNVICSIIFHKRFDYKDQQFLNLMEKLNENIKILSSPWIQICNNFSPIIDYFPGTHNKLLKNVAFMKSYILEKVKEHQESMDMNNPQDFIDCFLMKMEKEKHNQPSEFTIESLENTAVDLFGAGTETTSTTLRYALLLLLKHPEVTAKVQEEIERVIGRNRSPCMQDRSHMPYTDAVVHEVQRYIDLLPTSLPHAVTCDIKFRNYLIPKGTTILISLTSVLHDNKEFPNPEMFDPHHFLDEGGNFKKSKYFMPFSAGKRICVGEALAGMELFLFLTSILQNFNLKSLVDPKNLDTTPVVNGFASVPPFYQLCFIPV
test.name: Cytochrome P450 family 2 subfamily C member 9 (CYP2C9) small molecule antagonists: luciferase biochemical (cell-free) qHTS assay (AID 1645842); further: nearly all actives have a fitted effect of over 55% in size; further: potency means the concentration at half of the fitted maximal effect
protocol.conditions: P450-Glo CYP2C9 enzyme assay, luciferin luminescence; series mostly up to 57.4 µM
Records with an inconclusive call do not appear. Active and inactive are the calls of the source. The call rests on the fitted dose curve; in most records, active means well fitted inhibition curve with a large enough effect in the repeat runs; inconclusive means weak or mixed curves; inactive means no such curve, though single readings can be large or run the other way.
measurement.name: Potency

- compound: "CCOC(=O)OCC/C(SC(=O)OCC)=C(\\C)N(C=O)Cc1cnc(C)nc1N"
  measurement.name: "Potency"
  value.measured: "inactive"
- compound: "CC(=O)O[C@H]1CC[C@@]2(C)C(=CC[C@@H]3[C@@H]2CC[C@]2(C)C(C(C)=O)=CC[C@@H]32)C1"
  measurement.name: "Potency"
  value.measured: "inactive"
- compound: "CCOC(=O)[C@H](CCc1ccccc1)N[C@@H](C)C(=O)N(CC(=O)O)C1Cc2ccccc2C1"
  measurement.name: "Potency"
  value.measured: "19.5 µM (active)"
- compound: "Cc1cc(C(C)(C)C)c(O)c(C(C)(C)C)c1"
  measurement.name: "Potency"
  value.measured: "inactive"
- compound: "CCOc1ncc(F)c(=O)[nH]1"
  measurement.name: "Potency"
  value.measured: "inactive"
- compound: "CN1Cc2cc(C(=O)N3CCC(C4CCNCC4)CC3)ccc2NC(CC(=O)O)C1=O (stereo not given)"
  measurement.name: "Potency"
  value.measured: "inactive"
- compound: "CC(C)OC(=O)c1cc2c(OCC(O)CNC(C)(C)C)cccc2[nH]1 (stereo not given)"
  measurement.name: "Potency"
  value.measured: "inactive"
- compound: "CCOc1c(N2CCOCC2)cnn(C)c1=O"
  measurement.name: "Potency"
  value.measured: "inactive"
- compound: "O=C(NO)c1ccccc1"
  measurement.name: "Potency"
  value.measured: "inactive"
- compound: "O=P(O)(O)OCC(O)CO (stereo not given)"
  measurement.name: "Potency"
  value.measured: "inactive"
- compound: "COC(=O)c1ccc(NC(C)=O)cc1OC"
  measurement.name: "Potency"
  value.measured: "inactive"
- compound: "C1=CC2C3C=CC(C3)C2C1 (stereo not given)"
  measurement.name: "Potency"
  value.measured: "inactive"
- compound: "C[C@H](CN1CCCC1)C(=O)c1ccc(C(F)(F)F)cc1"
  measurement.name: "Potency"
  value.measured: "inactive"
- compound: "N#C/C(=C1/SC[C@@H](c2ccc(Cl)cc2Cl)S1)n1ccnc1"
  measurement.name: "Potency"
  value.measured: "0.436 µM (active)"
- compound: "CCCC(CCC)(C(=O)OCC)C(=O)OCC"
  measurement.name: "Potency"
  value.measured: "inactive"
- compound: "CC(=O)c1cc2ccccc2s1"
  measurement.name: "Potency"
  value.measured: "inactive"
- compound: "CCC(C(=O)OCCN1CCOC(c2ccccc2)C1C)c1ccccc1 (stereo not given)"
  measurement.name: "Potency"
  value.measured: "2.19 µM (active)"
- compound: "O=C(CS(=O)Cc1ccco1)NC/C=C\\COc1cc(CN2CCCCC2)ccn1 (stereo not given)"
  measurement.name: "Potency"
  value.measured: "inactive"
- compound: "N#CC1(c2ccc(F)cc2)CCC(=O)CC1"
  measurement.name: "Potency"
  value.measured: "inactive"
- compound: "CCOC(=O)c1ccc(O)c(O)c1"
  measurement.name: "Potency"
  value.measured: "inactive"
- compound: "O=C(c1cc(O)c(O)c(O)c1)c1ccc(O)c(O)c1O"
  measurement.name: "Potency"
  value.measured: "inactive"
- compound: "CCCCCCCC(=O)[O-].CCCCCCCC(=O)[O-].[Zn+2]"
  measurement.name: "Potency"
  value.measured: "inactive"
- compound: "CCS(=O)(=O)c1ccc(OC)c(C(=O)OC)c1"
  measurement.name: "Potency"
  value.measured: "inactive"
- compound: "O=C(Nc1ccc(S(=O)(=O)N2CCOCC2)cc1)c1cc(Cl)ccc1NS(=O)(=O)c1ccc(Cl)s1"
  measurement.name: "Potency"
  value.measured: "0.0436 µM (active)"
- compound: "COC(=O)C1=C(C)NC(COC(N)=O)=C(C(=O)OC(C)C)C1c1cccc(Cl)c1Cl (stereo not given)"
  measurement.name: "Potency"
  value.measured: "4.36 µM (active)"
- compound: "O=C1c2ccccc2CCc2ccccc21"
  measurement.name: "Potency"
  value.measured: "inactive"
- compound: "Cc1ccc(C(C)OC(=O)C2(C)CCC(C(=O)O)C2(C)C)cc1 (stereo not given)"
  measurement.name: "Potency"
  value.measured: "inactive"
- compound: "COC(=O)C1=C(C)NC(C)=C(C(=O)OCCc2ccc(N3CCN(C(c4ccccc4)c4ccccc4)CC3)cc2)C1c1cccc([N+](=O)[O-])c1 (stereo not given)"
  measurement.name: "Potency"
  value.measured: "0.55 µM (active)"
- compound: "O=C1Nc2cc(Cl)ccc2Oc2ccccc21"
  measurement.name: "Potency"
  value.measured: "inactive"
- compound: "CCOc1ccc(NS(=O)(=O)c2ccc(N)cc2)nn1"
  measurement.name: "Potency"
  value.measured: "inactive"
- compound: "CC1CCCCN1CCCOC(=O)c1ccc(OC2CCCCC2)cc1 (stereo not given)"
  measurement.name: "Potency"
  value.measured: "inactive"
- compound: "NC(=O)NC1N=C([O][Al])NC1=O (stereo not given)"
  measurement.name: "Potency"
  value.measured: "inactive"
- compound: "C=CC[N+]1([C@H]2C[C@H]3[C@@H]4CC[C@H]5C[C@H](OC(C)=O)[C@@H](N6CCCCC6)C[C@]5(C)[C@H]4CC[C@]3(C)[C@H]2OC(=O)CC)CCCCC1"
  measurement.name: "Potency"
  value.measured: "inactive"
- compound: "O=[N+]([O-])c1ccc(O)c2ncccc12"
  measurement.name: "Potency"
  value.measured: "inactive"
- compound: "CN(C)CCCOC1(Cc2ccccc2)CCCCCC1"
  measurement.name: "Potency"
  value.measured: "inactive"
- compound: "CCN1C(=O)c2ccccc2C1Nc1ccc(OCCN2CCCCC2)cc1 (stereo not given)"
  measurement.name: "Potency"
  value.measured: "inactive"
- compound: "CCCCCC(=O)O[C@]1(C(C)=O)CC[C@H]2[C@@H]3CCC4=CC(=O)CC[C@]4(C)[C@H]3CC[C@@]21C"
  measurement.name: "Potency"
  value.measured: "4.9 µM (active)"
- compound: "Cc1ccccc1N1CCN(CCc2nnc3n2CCCC3)CC1"
  measurement.name: "Potency"
  value.measured: "inactive"
- compound: "O=C(Oc1ccccc1)c1ccccc1O"
  measurement.name: "Potency"
  value.measured: "inactive"
- compound: "O=C(Nc1ccc(Cl)cc1)Nc1ccc(Cl)c(Cl)c1"
  measurement.name: "Potency"
  value.measured: "4.36 µM (active)"
- compound: "Cc1ccccc1C(=O)N1CC/C(=N\\OS(=O)(=O)O)c2ccc(Cl)cc21"
  measurement.name: "Potency"
  value.measured: "8.71 µM (active)"
- compound: "CC(C)C(=O)OCc1cccc(OC(=O)[C@@H]2N3C(=O)[C@@H](NC(=O)Cc4ccccc4)[C@H]3SC2(C)C)c1"
  measurement.name: "Potency"
  value.measured: "24.5 µM (active)"
- compound: "C=CCNc1nc(NCC=C)nc(N2CCN(C(c3ccc(F)cc3)c3ccc(F)cc3)CC2)n1"
  measurement.name: "Potency"
  value.measured: "inactive"
- compound: "CC(=O)OCC(=O)Nc1cc(C#N)cc(NC(=O)COC(C)=O)c1Cl"
  measurement.name: "Potency"
  value.measured: "inactive"
- compound: "O=C(O)[C@@H](O)[C@H](O)[C@H](O)[C@@H](O)C(=O)O"
  measurement.name: "Potency"
  value.measured: "inactive"
